B1: scFv; the commonest letter at each place (parent)
chain 1: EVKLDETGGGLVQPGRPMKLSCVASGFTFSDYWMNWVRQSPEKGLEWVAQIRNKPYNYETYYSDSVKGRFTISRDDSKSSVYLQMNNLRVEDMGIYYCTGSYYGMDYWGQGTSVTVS
chain 2: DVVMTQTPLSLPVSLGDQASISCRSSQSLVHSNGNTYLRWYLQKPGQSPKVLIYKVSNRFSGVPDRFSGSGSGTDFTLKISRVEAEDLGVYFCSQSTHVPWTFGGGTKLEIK

# Variants of: B1
# PROTOCOL_NOTES: Kd (Tite-Seq)
# APPLIED_CONDITIONS: with fluorescein; format: scFv 4-4-20, heavy + light
pKd: −log10 of the molar value.
MEASURED_PROPERTY: pKd

Here is how some variants turned out for pKd.
- SEQUENCE_CHANGE: "chain 1 S101Y Y103N D106L"
  pKd: "≤ 5.00"
- SEQUENCE_CHANGE: "chain 1 W108D G109Y"
  pKd: "≤ 5.00"
- SEQUENCE_CHANGE: "chain 1 Y32D"
  pKd: "≤ 5.00"
- SEQUENCE_CHANGE: "chain 1 M105D D106T"
  pKd: "≤ 5.00"
- SEQUENCE_CHANGE: "chain 1 M105Q D106Q"
  pKd: "≤ 5.00"

// pKd lookup, variant = chain 1 M105Y G109S , result: 7.29

// pKd lookup, variant = chain 1 Y32I N35P , result: ≤ 5.00

// pKd lookup, variant = chain 1 G109L , result: ≤ 5.00

// pKd lookup, variant = chain 1 W36C , result: ≤ 5.00

// pKd lookup, variant = chain 1 M105T G109L , result: ≤ 5.00

// pKd lookup, variant = chain 1 Y102H W108M , result: ≥ 9.50
